# assay_details: In vitro inhibitory activity towards Coagulation factor X was determined using chromogenic substrate, MeO-COD-CHG-Gly-Arg-pNA
pKi: −log10 of the molar value.
measure: pKi

// worked examples, pKi included
Incoming: Return value of pKi for input `N=C(N)c1ccc(CO)cc1` , no commentary.
Outgoing: 4.26

Incoming: Return value of pKi for input `N=C(N)c1ccc(O)cc1` , no commentary.
Outgoing: 4.52

Incoming: Return value of pKi for input `CS(=O)(=O)CCc1ccc(C(=N)N)cc1` , no commentary.
Outgoing: 3.71

Incoming: Return value of pKi for input `N=C(N)c1ccc(CCN)cc1` , no commentary.
Outgoing: 3.12

Incoming: Return value of pKi for input `N=C(N)c1ccc(CN)cc1` , no commentary.
Outgoing: 3.37

[1] CS(=O)(=O)c1ccc(C(=N)N)cc1
[2] N=C(N)c1ccc(N)cc1
[3] N=C(N)c1ccccc1
[4] N=C(N)c1ccc(CCO)cc1
Incoming: With regard to pKi, arrange the entries in ascending order, please. Reply: labels, ordered per the request.
Outgoing: 1, 4, 3, 2
(1: 2.74, 4: 3.22, 3: 3.46, 2: 3.71)

====

Each entry below carries its recorded pKi.
# assay_details: In vitro inhibitory activity towards Coagulation factor X was determined using chromogenic substrate, MeO-COD-CHG-Gly-Arg-pNA
pKi: −log10 of the molar value.

// worked examples, pKi included
Incoming: Return value of pKi for input `CS(=O)(=O)Cc1ccc(C(=N)N)cc1` , no commentary.
Outgoing: < 2.30

Incoming: Return value of pKi for input `CN(C)c1ccc(P(C)(=O)O)cc1` , no commentary.
Outgoing: 2.39

Turning now to a further record.
Incoming: Return value of pKi for input `CP(=O)(O)c1ccc2c(N)nccc2c1` , no commentary.
Outgoing: < 2.30
